assay: amyloid nucleation score (Sup35N fusion, yeast selection) (log enrichment); library NNK2; higher = more nucleation; inactive = no reads after selection;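 note: zero at mode of non-aggregating sequences after 7 days selection at 30°C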
MEASUREMENT_KIND: amyloid nucleation score
Respond numerically, and do not add a unit to the figure.

{"MONOMER_SEQUENCE": "FCTLCFSLCQ", "amyloid nucleation score": 1.82}

Entry YNSTALKVSWRVRLGPWNWI ; amyloid nucleation score = -0.06

Entry TPFGTVECTQLLLSTSRWLF ; amyloid nucleation score = -0.26

Entry PSCFQDYKWQMWQLTRAWNF ; amyloid nucleation score = -0.758

Entry LIVKLANTGRSQHHIRSWLS ; amyloid nucleation score = -0.212

Entry IILFEYCEF ; amyloid nucleation score = -0.613

Entry PEKTFICCLAVRDMQNRGVS ; amyloid nucleation score = -0.032

---

amyloid nucleation score for assorted substances
assay: amyloid nucleation score (Sup35N fusion, yeast selection) (log enrichment); library NNK1; higher = more nucleation; inactive = no reads after selection
Respond numerically, and do not add a unit to the figure.

{"SUBSTANCE": "RNRNCFSRYCRLIV", "MEASUREMENT_KIND": "amyloid nucleation score", "RECORDED_RESULT": -1.45}
{"SUBSTANCE": "NRCVAGRWPNSFVVLGHTFN", "MEASUREMENT_KIND": "amyloid nucleation score", "RECORDED_RESULT": -0.211}
{"SUBSTANCE": "WCSAMKISTRAPRWENIWSM", "MEASUREMENT_KIND": "amyloid nucleation score", "RECORDED_RESULT": 0.612}

Entry AIVTSGNRE ; amyloid nucleation score = -0.015

Entry YTEQACDSVP ; amyloid nucleation score = -0.788

Entry CRLHVNGLVIVCASWKCGA ; amyloid nucleation score = 3.76

Entry LRVPRCMIKRLHYGICPSSG ; amyloid nucleation score = 0.094

Entry NRDYTVFKTRVFKSIFRIR ; amyloid nucleation score = 0.505

Entry VVAAILHKLS ; amyloid nucleation score = -0.16

Entry TNPYSWNLYCGFLNTDWVV ; amyloid nucleation score = 0.787

---

assay: amyloid nucleation score (Sup35N fusion, yeast selection) (log enrichment); library NNK3; higher = more nucleation; inactive = no reads after selection
MEASUREMENT_KIND: amyloid nucleation score

As a guide, the following entries are already answered.
{"SUBSTANCE": "PSDDYGHLVWLTICCNCLD", "RECORDED_RESULT": 1.6}
{"SUBSTANCE": "HGCYFYYSCTFYC", "RECORDED_RESULT": 3.29}
{"SUBSTANCE": "FLTDRPYRGCG", "RECORDED_RESULT": "inactive"}
{"SUBSTANCE": "FDACLTERVVGISKDTDTSG", "RECORDED_RESULT": "inactive"}
{"SUBSTANCE": "KHVGIVMH", "RECORDED_RESULT": "inactive"}
{"SUBSTANCE": "NNSSLRTEVLCFDGISQFGG", "RECORDED_RESULT": "inactive"}
{"SUBSTANCE": "MSYEDTPCH", "RECORDED_RESULT": "inactive"}
{"SUBSTANCE": "CFDCTVF", "RECORDED_RESULT": "inactive"}

Entry VPRVSSTQDCNRLILRKVCL ; amyloid nucleation score = inactive

Entry NTCSCTGFTFAAGDV ; amyloid nucleation score = -0.33

---

amyloid nucleation score for assorted substances
assay: amyloid nucleation score (Sup35N fusion, yeast selection) (log enrichment); library NNK1; higher = more nucleation; inactive = no reads after selection
Respond numerically, and do not add a unit to the figure.

As a guide, the following entries are already answered.
{"SUBSTANCE": "CGKESRVRVKYCVFGIKKWQ", "MEASUREMENT_KIND": "amyloid nucleation score", "RECORDED_RESULT": -0.518}
{"SUBSTANCE": "FCIYVLFFRSVDYPLRVVEL", "MEASUREMENT_KIND": "amyloid nucleation score", "RECORDED_RESULT": -0.529}
{"SUBSTANCE": "SYGGGYTTSQGYGLGELTKY", "MEASUREMENT_KIND": "amyloid nucleation score", "RECORDED_RESULT": 0.543}
{"SUBSTANCE": "KNFFPFAFVFL", "MEASUREMENT_KIND": "amyloid nucleation score", "RECORDED_RESULT": 7.08}

Entry CTLSYSCFLVVLSFYGQSSF ; amyloid nucleation score = 0.366

Entry GRLCPLRSKTSFNCY ; amyloid nucleation score = -1.81

---

test: amyloid nucleation score (Sup35N fusion, yeast selection) (log enrichment); library NNK2; higher = more nucleation; inactive = no reads after selection
amyloid nucleation score for assorted substances
Respond numerically, and do not add a unit to the figure.

As a guide, the following entries are already answered.
{"SUBSTANCE": "GQVLLFCMRTTYTMDEEFNS", "amyloid nucleation score": 0.082}
{"SUBSTANCE": "YFGVEKDEFPPLLGMHMF", "amyloid nucleation score": -1.59}

The record that follows has no amyloid nucleation score shown yet.
Entry TASSLCIQVGYVIFLY ; amyloid nucleation score = 8.07

---

assay: amyloid nucleation score (Sup35N fusion, yeast selection) (log enrichment); library NNK3; higher = more nucleation; inactive = no reads after selection
MEASUREMENT_KIND: amyloid nucleation score

{"SUBSTANCE": "LDVYTVTGRDW", "amyloid nucleation score": "inactive"}
{"SUBSTANCE": "QDHDVSYSSCPGYSVMVMEG", "amyloid nucleation score": -0.399}
{"SUBSTANCE": "AVINVILIIVSECRNSN", "amyloid nucleation score": 1.9}
{"SUBSTANCE": "YNHSMGWVCSAFDAKVRILR", "amyloid nucleation score": "inactive"}
{"SUBSTANCE": "CCRFAVLRRLERSDQKGVWI", "amyloid nucleation score": "inactive"}
{"SUBSTANCE": "ARLSLWS", "amyloid nucleation score": 0.733}
{"SUBSTANCE": "NRWIRLLNAISWGYLRMLMV", "amyloid nucleation score": "inactive"}
{"SUBSTANCE": "FSDRRSINPELEF", "amyloid nucleation score": "inactive"}
{"SUBSTANCE": "YLRVWPMRVYNMP", "amyloid nucleation score": "inactive"}
{"SUBSTANCE": "MNRLNPRYMMIKYMDIQKWW", "amyloid nucleation score": "inactive"}

Entry YNLAGVFVIGHGNACATAFR ; amyloid nucleation score = 0.831

Entry EPQYDSYTGGVSAFVVLKEH ; amyloid nucleation score = inactive

---

test: amyloid nucleation score (Sup35N fusion, yeast selection) (log enrichment); library NNK2; higher = more nucleation; inactive = no reads after selection
amyloid nucleation score for assorted substances
Respond numerically, and do not add a unit to the figure.

{"SUBSTANCE": "IGVRPCTMRC", "RECORDED_RESULT": 0.23}
{"SUBSTANCE": "CILLPKVSCCCKGLICCDFV", "RECORDED_RESULT": 0.186}
{"SUBSTANCE": "RLWCLRSTNEMAVSCYRSWD", "RECORDED_RESULT": 4.47}
{"SUBSTANCE": "IFDYSV", "RECORDED_RESULT": -0.874}
{"SUBSTANCE": "CSSENLSLLIYSIKVGNGF", "RECORDED_RESULT": 3.28}

Entry CNVDYLSDVYYHVPMQDQSL ; amyloid nucleation score = 0.368

Entry MELMNMV ; amyloid nucleation score = -0.127

Entry KDFLANPKGESGQQRTMQCI ; amyloid nucleation score = -0.502

Entry CFGYWHSVRARCLRKVGHRT ; amyloid nucleation score = 0.546

Entry LDDSYPCFASIITI ; amyloid nucleation score = 1.01

Entry IIAEFDSGWSEAFDSCLGMS ; amyloid nucleation score = -0.114

Entry ILSLRNR ; amyloid nucleation score = -0.965

Entry CMKMSWFRTRSTYSIEALHS ; amyloid nucleation score = 0.037

Entry HSALWRLWEPAQP ; amyloid nucleation score = 0.552

Entry DRRELRHDDAVVAYIDVVIE ; amyloid nucleation score = 1.05

Entry YVMSAVFYSVRFVAIETCKV ; amyloid nucleation score = 0.155

---

test: amyloid nucleation score (Sup35N fusion, yeast selection) (log enrichment); library NNK3; higher = more nucleation; inactive = no reads after selection
MEASUREMENT_KIND: amyloid nucleation score

As a guide, the following entries are already answered.
{"SUBSTANCE": "LDFYRTFNDSIFKMGPLCLS", "amyloid nucleation score": "inactive"}
{"SUBSTANCE": "RKYTKCSFRKKSWCPSPFEL", "amyloid nucleation score": "inactive"}
{"SUBSTANCE": "DYVPIKFYRYYEILNVCRVV", "amyloid nucleation score": "inactive"}
{"SUBSTANCE": "FYYNVRLRRAGWAYRITWTT", "amyloid nucleation score": "inactive"}
{"SUBSTANCE": "YWSNSYGIECCRLVQQAPTE", "amyloid nucleation score": -0.132}
{"SUBSTANCE": "IGFGSWFSKVSPNVEFVGAL", "amyloid nucleation score": "inactive"}
{"SUBSTANCE": "VYAKVMSCGYGQRCVMEWFE", "amyloid nucleation score": "inactive"}
{"SUBSTANCE": "RAWNWWGFVTFPERLMCSHT", "amyloid nucleation score": "inactive"}
{"SUBSTANCE": "FHGFLYSAFSSDG", "amyloid nucleation score": "inactive"}
{"SUBSTANCE": "WGTRLWIVVQIGQEYVLLVR", "amyloid nucleation score": -0.234}

Entry FVASHLVVAKGVKASVRKFY ; amyloid nucleation score = 1.31

Entry DPRRGIPIKPQMINTVQM ; amyloid nucleation score = inactive

Entry ERALIDSHPGTWLRRMTVNR ; amyloid nucleation score = inactive

Entry KVCNSF ; amyloid nucleation score = inactive
